# key: entry, value: IC50
- Target Entity: PIK3CB;PIK3CG;PIK3CD;PIK3CA (human)
- Assay Text: Enzyme Assay
Answer with a number only, understood to be in nM.

Sample records with IC50:
O=C(c1nn(C2CCN(CCn3ccnc3)C2)c2c1CS(=O)(=O)c1ccccc1-2)N1CCOCC1 (stereo not drawn)	166
O=C(c1nn(-c2cccc(-c3cnn(CCN4CCOCC4)c3)c2)c2c1CS(=O)(=O)c1ccccc1-2)N1CCOCC1	338
O=C(c1nn([C@H]2CCCN(CCN3CCC(O)CC3)C2)c2c1CS(=O)(=O)c1ccccc1-2)N1CCOCC1	18

Please report IC50 for the following compound: `O=C(c1nn(C2CCOCC2)c2c1CS(=O)(=O)c1sccc1-2)N1CCOCC1` 824

Please report IC50 for the following compound: `COC1CN(CCN2CCC[C@H](n3nc(C(=O)N4CCOCC4)c4c3-c3ccccc3S(=O)(=O)C4)C2)C1` 20

Reference source: the Kinase Knowledgebase extract (Sharma et al. 2016)
